# ASSAY_CONDITIONS: buffer; pH 7.4; 200.0 µM
Record condition met whenever solubility kinetic is at 20 µg/mL or higher; record condition not met when lower.

{"COMPOUND": "Cc1nn(-c2ccccc2)c(C)c1CN", "ASSIGNED_CLASS": "condition met"}
{"COMPOUND": "COc1cccc(NC(=O)N2CCCC2C(=O)NC2CCCC2)c1 (centres undefined)", "ASSIGNED_CLASS": "condition met"}
{"COMPOUND": "O=C(O)CC1(CC(=O)NCc2ccc(F)cc2)CCCCC1", "ASSIGNED_CLASS": "condition met"}
{"COMPOUND": "COc1ccc(C(=O)NCCc2c[nH]c3ccc(OC)cc23)cc1", "ASSIGNED_CLASS": "condition met"}
{"COMPOUND": "CCOC(=O)c1csc(-c2ccc3c(c2)CCO3)n1", "ASSIGNED_CLASS": "condition met"}
{"COMPOUND": "CC1CCCC(C)N1C(=O)COC(=O)c1nn(C)c(=O)c2ccccc12 (centres undefined)", "ASSIGNED_CLASS": "condition met"}
{"COMPOUND": "COc1cccc(C2=NOC(C(=O)Nc3cc(C)on3)C2)c1OC (centres undefined)", "ASSIGNED_CLASS": "condition met"}
{"COMPOUND": "COCCNC(=O)C(=O)Nc1ccc(Cl)cc1C", "ASSIGNED_CLASS": "condition met"}
{"COMPOUND": "CC1(CCBr)C(=O)N(c2ccccc2)c2ccccc21 (centres undefined)", "ASSIGNED_CLASS": "condition met"}
{"COMPOUND": "O=C(Nc1cccc(-c2nc3ccccc3o2)c1)c1cccnc1", "ASSIGNED_CLASS": "condition not met"}
{"COMPOUND": "Cc1cc(/C=C2\\NC(=O)NC2=O)c(C)n1-c1cccnc1", "ASSIGNED_CLASS": "condition met"}
{"COMPOUND": "O=C(Nc1cccc2ncccc12)c1cc([N+](=O)[O-])ccc1Cl", "ASSIGNED_CLASS": "condition not met"}
{"COMPOUND": "Cc1ccc(C(=O)Nc2ccccc2)cc1S(=O)(=O)N1CCN(C)CC1", "ASSIGNED_CLASS": "condition met"}
{"COMPOUND": "Cc1ccccc1NC(=O)COC(=O)[C@@H]1CCCN1C(=O)c1cccs1", "ASSIGNED_CLASS": "condition met"}
{"COMPOUND": "COc1ccccc1Nc1ccc(C(=O)O)cc1[N+](=O)[O-]", "ASSIGNED_CLASS": "condition met"}
{"COMPOUND": "CCc1cccc(C)c1NC(=O)c1cccnc1", "ASSIGNED_CLASS": "condition met"}
{"COMPOUND": "O=C(Cc1ccccc1)Nc1ccc2oc(=O)ccc2c1", "ASSIGNED_CLASS": "condition met"}
{"COMPOUND": "O=C(O)c1ccccc1-c1ccccc1C(=O)Nc1ccc(F)cc1", "ASSIGNED_CLASS": "condition met"}
{"COMPOUND": "COc1ccc(N(Cc2cc3cc(C)ccc3[nH]c2=O)C(C)=O)cc1", "ASSIGNED_CLASS": "condition met"}
{"COMPOUND": "COCCn1c(C)cc(C(=O)COc2cccnc2[N+](=O)[O-])c1C", "ASSIGNED_CLASS": "condition met"}
{"COMPOUND": "OCC1(CO)COC(/C=C/c2ccccc2)=N1", "ASSIGNED_CLASS": "condition met"}
{"COMPOUND": "Cc1ccccc1NC(=S)NC(=O)COc1ccccc1C", "ASSIGNED_CLASS": "condition not met"}
{"COMPOUND": "CC(=O)c1c(O)c2cccc3c2n(c1=O)CCC3", "ASSIGNED_CLASS": "condition met"}
{"COMPOUND": "CNc1nc(-c2ccccc2)cc(C)c1S(C)(=O)=O", "ASSIGNED_CLASS": "condition met"}
{"COMPOUND": "Cc1ccc(NC(=S)NCCC2=CCCCC2)cc1", "ASSIGNED_CLASS": "condition not met"}
{"COMPOUND": "CN(CC(=O)Nc1cccc(F)c1)C(=O)c1cccc2ccccc12", "ASSIGNED_CLASS": "condition met"}
{"COMPOUND": "O=C(NCc1cccnc1)Nc1ccc([N+](=O)[O-])cc1", "ASSIGNED_CLASS": "condition met"}
{"COMPOUND": "O=C(O)C(=O)O.OC1(c2ccccc2)CCNC2CCCCC21 (centres undefined)", "ASSIGNED_CLASS": "condition met"}
{"COMPOUND": "Cc1cccc(NC(=O)CN(C)C(=O)C2CCCC2)c1C", "ASSIGNED_CLASS": "condition met"}
{"COMPOUND": "N#Cc1cccc(S(=O)(=O)NCc2nnc3ccccn23)c1", "ASSIGNED_CLASS": "condition met"}
{"COMPOUND": "O=C(Nc1ccc(F)cc1)Nc1sccc1-c1nc2ccccc2s1", "ASSIGNED_CLASS": "condition not met"}
{"COMPOUND": "Cc1cccc(NC(=O)CCOc2ccccc2)c1C", "ASSIGNED_CLASS": "condition not met"}
{"COMPOUND": "CCOP(=O)(OCC)C(Nc1ccc(C)cc1)c1ccco1 (centres undefined)", "ASSIGNED_CLASS": "condition met"}
{"COMPOUND": "COc1ccccc1NC(=O)c1cnc(SC)nc1", "ASSIGNED_CLASS": "condition met"}
{"COMPOUND": "O=C(NCc1ccc(Cl)cc1)[C@@H]1CCCN1S(=O)(=O)c1ccc(Cl)cc1", "ASSIGNED_CLASS": "condition met"}
{"COMPOUND": "COc1ccccc1NC1=C(Cl)C(=O)OC1OC(=O)c1ccco1 (centres undefined)", "ASSIGNED_CLASS": "condition met"}
{"COMPOUND": "CC(C)(C)NC(=O)C1c2ccccc2Oc2ccccc21", "ASSIGNED_CLASS": "condition not met"}
{"COMPOUND": "Clc1cccc(CN2CCSCC2)c1Cl", "ASSIGNED_CLASS": "condition not met"}
{"COMPOUND": "CSc1ncc(CN2CCN(C3CCCC3)C(CCO)C2)cn1 (centres undefined)", "ASSIGNED_CLASS": "condition met"}
{"COMPOUND": "CSc1nc(C)c(C(=O)C[n+]2ccccc2C)cc1C#N.[Br-]", "ASSIGNED_CLASS": "condition met"}
{"COMPOUND": "CC(CC(=O)O)CC(=O)Nc1cc(C(F)(F)F)cc(C(F)(F)F)c1 (centres undefined)", "ASSIGNED_CLASS": "condition met"}
{"COMPOUND": "CN(C)c1ccc(-n2cccc2/C=C/[N+](=O)[O-])cc1", "ASSIGNED_CLASS": "condition not met"}
{"COMPOUND": "O=C(COc1ccc2ccccc2c1)NCC1CCCO1 (centres undefined)", "ASSIGNED_CLASS": "condition met"}
{"COMPOUND": "Cc1ccc(S(=O)(=O)N2CC=C(C(=O)NC3CC3)CC2)cc1", "ASSIGNED_CLASS": "condition met"}
{"COMPOUND": "CCOC(=O)C1CCCN(Cc2nc(C3CC3)no2)C1 (centres undefined)", "ASSIGNED_CLASS": "condition met"}
{"COMPOUND": "Cc1c(S(=O)(=O)NCc2ccccc2)c(=O)n(C)c(=O)n1C", "ASSIGNED_CLASS": "condition met"}
{"COMPOUND": "COc1ccc(Cl)cc1C(=O)OCC(=O)Nc1sccc1C(N)=O", "ASSIGNED_CLASS": "condition not met"}

---

# ASSAY_CONDITIONS: buffer; pH 7.4; 200.0 µM

{"MOLECULE": "Cc1cc(N2C(=O)c3ccccc3C2=O)n(C)n1", "UNITS_TEXT": "µg/mL", "QUALIFIER_SYMBOL": ">", "solubility kinetic": 36.2}
{"MOLECULE": "O=c1onc(-c2c(F)cccc2F)n1-c1ccccc1Cl", "UNITS_TEXT": "µg/mL", "QUALIFIER_SYMBOL": "=", "solubility kinetic": 1}
{"MOLECULE": "O=C(NCc1csc(-c2cccs2)n1)C1CCCCC1", "UNITS_TEXT": "µg/mL", "QUALIFIER_SYMBOL": "=", "solubility kinetic": 3.9}
{"MOLECULE": "Cc1c(C)n(CCCN(C)C)c2ncnc(Nc3ccccc3)c12", "UNITS_TEXT": "µg/mL", "QUALIFIER_SYMBOL": ">", "solubility kinetic": 48.5}
{"MOLECULE": "COC(c1ccccc1)c1nnc(CCC(=O)NC2CCCCC2)o1 (stereo unspecified)", "UNITS_TEXT": "µg/mL", "QUALIFIER_SYMBOL": ">", "solubility kinetic": 51.5}
{"MOLECULE": "CCOc1ccc(NC(=O)N(c2ccccc2)c2ccccc2)cc1", "UNITS_TEXT": "µg/mL", "QUALIFIER_SYMBOL": "=", "solubility kinetic": 2.5}
